Assay: in vitro
Settings: human, Caco-2, pH 7.4, Recovery (%) BL-AP
PROPERTY NAME: recovery at 2 h, 5 µM (%)
Respond numerically; units are % and should not be typed.

Dear colleague, I am looking for the recorded recovery at 2 h, 5 µM of the following molecule: C[C@@H]1Cc2cc(C(N)=O)cnc2N1 [Compound 11]
106

----------
Assay: Mouse PK studies of 11 (plasma)
Format: in vivo, Female C57B16/N mice
Conditions: female, C57B16/N, mouse, plasma; 1 mg/kg IV
PROPERTY NAME: half-life (min)
The figure you give is taken to be in min; do not add the unit.

Which half-life is listed for C[C@@H]1Cc2cc(C(N)=O)cnc2N1 [Compound 11] ?
8.88
